experiment: in vivo; set-up: species or system male beagle dogs; settings: male, beagle, dog, po, 100 mg/kg
measuredMetric: Cmax

INSERT INTO results (compound, val) VALUES
  ('CN1CCN(c2cccc(Nc3nc4c(-c5ccc(S(C)(=O)=O)cc5)cccn4n3)c2)CC1 [Compound A]', '1760 ng/mL');
